TARGET SYSTEM: Hemoglobin HbA (Homo sapiens) (UniProt P69905+P68871)
Sequence (P68871 2-147 partner limits assumed): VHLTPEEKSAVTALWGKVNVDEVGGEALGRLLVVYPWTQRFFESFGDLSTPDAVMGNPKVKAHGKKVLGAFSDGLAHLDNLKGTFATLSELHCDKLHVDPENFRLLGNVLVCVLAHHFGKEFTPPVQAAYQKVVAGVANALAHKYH
Sequence (P69905 2-142 limits assumed): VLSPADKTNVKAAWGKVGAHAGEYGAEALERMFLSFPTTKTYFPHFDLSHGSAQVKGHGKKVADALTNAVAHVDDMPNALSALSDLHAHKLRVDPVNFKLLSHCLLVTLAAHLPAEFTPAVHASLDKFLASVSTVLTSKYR
PROCEDURE SUMMARY: The difference in the partial pressure of oxygen at 50% saturated Hb
Type: functional
Provide the reported Delta P50 of each item.
Format: numeric value only, no unit, no commentary.

# input Checklist item: Delta P50 tested on Hemoglobin HbA (Homo sapiens) (UniProt P69905+P68871), entry `Cc1cc(C)cc(NC(=O)Cc2ccc(OC3(C(=O)N[C@H](CCCCNC(=O)OCc4ccccc4)C(=O)O)CCCC3)cc2)c1` , value?
# output 0.4

# input Checklist item: Delta P50 tested on Hemoglobin HbA (Homo sapiens) (UniProt P69905+P68871), entry `Cc1cc(C)cc(NC(=O)Cc2ccc(OC(C)(C)C(=O)O)cc2)c1` , value?
# output 51.5

# input Checklist item: Delta P50 tested on Hemoglobin HbA (Homo sapiens) (UniProt P69905+P68871), entry `Cc1cc(C)cc(NC(=O)Cc2ccc(OC3(C(=O)N[C@H](Cc4ccccc4)C(=O)O)CCCC3)cc2)c1` , value?
# output 20.3

# input Checklist item: Delta P50 tested on Hemoglobin HbA (Homo sapiens) (UniProt P69905+P68871), entry `Cc1cc(C)cc(NC(=O)Cc2ccc(OC3(C(=O)N[C@@H](CC(C)C)C(=O)O)CCCC3)cc2)c1` , value?
# output 41.5

# input Checklist item: Delta P50 tested on Hemoglobin HbA (Homo sapiens) (UniProt P69905+P68871), entry `Cc1cc(C)cc(NC(=O)Cc2ccc(OC3(C(=O)N[C@@H](CO)C(=O)O)CCCC3)cc2)c1` , value?
# output 15.5

# input Checklist item: Delta P50 tested on Hemoglobin HbA (Homo sapiens) (UniProt P69905+P68871), entry `Cc1cc(C)cc(NC(=O)Cc2ccc(OC3(C(=O)N[C@H](CCCCN)C(=O)O)CCCC3)cc2)c1` , value?
# output -0.6

# input Checklist item: Delta P50 tested on Hemoglobin HbA (Homo sapiens) (UniProt P69905+P68871), entry `Cc1cc(C)cc(NC(=O)Cc2ccc(OC3(C(=O)N[C@@H](Cc4ccc5[nH]ccc5c4)C(=O)O)CCCC3)cc2)c1` , value?
# output 20.2

# input Checklist item: Delta P50 tested on Hemoglobin HbA (Homo sapiens) (UniProt P69905+P68871), entry `Cc1cc(C)cc(NC(=O)Cc2ccc(OC3(C(=O)N[C@H](CC(=O)O)C(=O)O)CCCC3)cc2)c1` , value?
# output 26.6
